- stated-conditions: in acetone, 288.15 K

>  <line-notation>
Cc1cc(Cl)cc(C(=O)O)c1N

>  <solubility (mole fraction)>
0.0152

$$$$
